Origin of values: patent US20120149631A1

System: A. actinomycetemcomitans Y4
condition-set: 24 h
No end group written: not given here.
# reported EC50; entries follow
# number then unit; no other words

item-sequence	value-measured
GLLSRLRDFLSDRGRRLGEKIERIGQKIKDLSEFFQS [PMAP-37]	1250 nM
RLKELITTGGQKIGEKIRRIGQRIKDFFKNLQPREEKS [K9CATH]	111 nM
GGLRSLGRKILRAWKKYGPIIVPIIRIG [BMAP-28]	215 nM

The record that follows has no EC50 shown yet.
(Q) Hello, I am looking for reported EC50 with A. actinomycetemcomitans Y4 for GLRKRLRKFRNKIKEKLKKIGQKIQGLLPKLAPRTDY [CAP-18] . Could you help?
(A) 1590 nM
